Cited source for all entries: PubChem BioAssay AID2060503

# System: 817829-284-R-J1-PDC complex spheroids, viability
# test: Anticancer human tumor 817829-284-R-J1-PDC patient-derived colon adenocarcinoma cell line growth inhibition [GQUAD]
# details: curve of first compound; second compound 1 µM
pIC50: −log10 of the molar value.
reported.endpoint: pIC50

Consider the worked cases shown below.
Looking for the measured pIC50 of CC(=O)O[C@H]1C(=O)[C@@]2(C)[C@H]([C@H](OC(=O)c3ccccc3)[C@]3(O)C[C@H](OC(=O)[C@H](O)[C@@H](NC(=O)c4ccccc4)c4ccccc4)C(C)=C1C3(C)C)[C@]1(OC(C)=O)CO[C@@H]1C[C@@H]2O + Cc1cnc(CNC(=O)c2c(=O)c3ccc(N4CCCN(C)CC4)nc3n3c2sc2ccccc23)cn1 , can you help? > 7.50

Quick one: pIC50 of COc1ncnc(C2CC2)c1-c1ncc2cnn(Cc3ccc(-c4nc(C(F)(F)F)cn4C(C)C)cc3)c2n1 + Cc1[nH]c2ccc(F)cc2c1-c1nc2c3cccnc3c3ncccc3c2[nH]1 ? < 5.00

---
Quick check: pIC50 of CC(C)(O)C1CCC(Nc2ccc3ncc(-c4cccc(C(F)(F)F)c4)n3n2)CC1 (stereo not drawn) + Cc1cnc(CNC(=O)c2c(=O)c3ccc(N4CCCN(C)CC4)nc3n3c2sc2ccccc23)cn1 ? > 7.50

###

# Tested on: 817829-284-R-J1-PDC complex spheroids, viability
# test: Anticancer human tumor 817829-284-R-J1-PDC cell line growth inhibition [GQUAD];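 further: spheroids exposed to agents for 7 days before readout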;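 on viability, T/C: percent viability relative to DMSO vehicle control taken as 100%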
# details: second compound 0.0316 µM; first compound 3.16 µM; stronger effect = lower value
# Description: DNA G-quadruplex Stabilizer Agents in Combinations in Complex Spheroids A high-throughput screen of multi-cell type tumor spheroids was designed to identify active combinations of DNA G-quadruplex stabilizer agents and targeted small molecules. […] Compounds. […] If the clinical Cmax for an agent had not been determined, the highest concentration tested was 10 microM. […]
Could you mark each record True if its viability, T/C falls strictly under 80%, and False if it equals or exceeds it?

Consider the worked cases shown below.
hey, is viability, T/C for O=C(c1cc(Cc2n[nH]c(=O)c3ccccc23)ccc1F)N1CCN(C(=O)C2CC2)CC1 + Cc1[nH]c2ccc(F)cc2c1-c1nc2c3cccnc3c3ncccc3c2[nH]1 lower than 80% or not? False

In the record for O=c1[nH]cc(F)c(=O)[nH]1 + Cc1cnc(CNC(=O)c2c(=O)c3ccc(N4CCCN(C)CC4)nc3n3c2sc2ccccc23)cn1 , is viability, T/C less than 80%? True

I'd appreciate it if you could check whether C=CCn1c(=O)c2cnc(Nc3ccc(N4CCN(C)CC4)cc3)nc2n1-c1cccc(C(C)(C)O)n1 + Cc1cnc(CNC(=O)c2c(=O)c3ccc(N4CCCN(C)CC4)nc3n3c2sc2ccccc23)cn1 has viability, T/C smaller than 80%. True

Given CC(=O)O[C@H]1C(=O)[C@@]2(C)[C@H]([C@H](OC(=O)c3ccccc3)[C@]3(O)C[C@H](OC(=O)[C@H](O)[C@@H](NC(=O)c4ccccc4)c4ccccc4)C(C)=C1C3(C)C)[C@]1(OC(C)=O)CO[C@@H]1C[C@@H]2O + CN(C)c1ccc(Nc2c3ccc(NC(=O)CCN4CCCC4)cc3nc3cc(NC(=O)CCN4CCCC4)ccc23)cc1 , is recorded viability, T/C strictly lower than 80%? True

Lab note: confirm whether the reported viability, T/C for this compound is below 80%, equality not counting. compound: CCCS(=O)(=O)Nc1ccc(F)c(C(=O)c2c[nH]c3ncc(-c4ccc(Cl)cc4)cc23)c1F + Cc1cnc(CNC(=O)c2c(=O)c3ccc(N4CCCN(C)CC4)nc3n3c2sc2ccccc23)cn1 True

More entries:
Hi there! Is viability, T/C for CC(C)n1c(=O)n(C)c2cnc3cc(F)c(-c4ccc(OCCCN5CCCCC5)nc4)cc3c21 + CN(C)c1ccc(Nc2c3ccc(NC(=O)CCN4CCCC4)cc3nc3cc(NC(=O)CCN4CCCC4)ccc23)cc1 below 80%, do you know? False

viability, T/C under 80%? Item: COc1cc(C2c3cc4c(cc3C(OC3OC5COC(C)OC5C(O)C3O)C3COC(=O)C23)OCO4)cc(OC)c1O (stereo not given) + CN(C)c1ccc(Nc2c3ccc(NC(=O)CCN4CCCC4)cc3nc3cc(NC(=O)CCN4CCCC4)ccc23)cc1 True

Hi there! Is viability, T/C for CCCS(=O)(=O)Nc1ccc(F)c(C(=O)c2c[nH]c3ncc(-c4ccc(Cl)cc4)cc23)c1F + Cc1[nH]c2ccc(F)cc2c1-c1nc2c3cccnc3c3ncccc3c2[nH]1 below 80%, do you know? False

Identify whether the compound O=C(NO)c1cnc(N2CCN(S(=O)(=O)c3ccc4ccccc4c3)CC2)nc1 + Cc1cnc(CNC(=O)c2c(=O)c3ccc(N4CCCN(C)CC4)nc3n3c2sc2ccccc23)cn1 records viability, T/C below 80%. True

Lab note: confirm whether the reported viability, T/C for this compound is below 80%, equality not counting. compound: COc1ccc([C@@H](O)c2cc(-c3ncnc4cc(N5CCOCC5)ccc34)c(F)cc2Cl)nn1 + Cc1[nH]c2ccc(F)cc2c1-c1nc2c3cccnc3c3ncccc3c2[nH]1 False

###

# Tested on: 817829-284-R-J1-PDC complex spheroids, viability
# test: Anticancer human tumor 817829-284-R-J1-PDC cell line growth inhibition [GQUAD];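 further: spheroids exposed to agents for 7 days before readout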;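 on viability, T/C: percent viability relative to DMSO vehicle control taken as 100%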
# details: second compound 0.316 µM; first compound 0.00316 µM; stronger effect = lower value
reported.endpoint: viability, T/C

Form: Entry = Cn1ncnc1[C@H]1c2n[nH]c(=O)c3cc(F)cc(c23)N[C@@H]1c1ccc(F)cc1 + CN(C)c1ccc(Nc2c3ccc(NC(=O)CCN4CCCC4)cc3nc3cc(NC(=O)CCN4CCCC4)ccc23)cc1 | System = 817829-284-R-J1-PDC complex spheroids, viability | viability, T/C = ____ 104%

###

# System: 817829-284-R-J1-PDC complex spheroids, viability
# test: Anticancer human tumor 817829-284-R-J1-PDC cell line growth inhibition [GQUAD];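 further: spheroids exposed to agents for 7 days before readout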;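 on viability, T/C: percent viability relative to DMSO vehicle control taken as 100%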
# details: second compound 10 µM; first compound 0.0316 µM; stronger effect = lower value
viability, T/C values, listed per item
Report the value in % with no unit label.

Sample records with viability, T/C:
Requested field: viability, T/C. Item: O=C(NO)c1cnc(N2CCN(S(=O)(=O)c3ccc4ccccc4c3)CC2)nc1 + CN(C)c1ccc(Nc2c3ccc(NC(=O)CCN4CCCC4)cc3nc3cc(NC(=O)CCN4CCCC4)ccc23)cc1 102

Which measured viability, T/C value corresponds to CCc1c2c(nc3ccc(O)cc13)-c1cc3c(c(=O)n1C2)COC(=O)[C@]3(O)CC + CN(C)c1ccc(Nc2c3ccc(NC(=O)CCN4CCCC4)cc3nc3cc(NC(=O)CCN4CCCC4)ccc23)cc1 ? 20.6

Note: attention shifts to another entry.
Quick one: viability, T/C for C#Cc1c(F)ccc2cc(O)cc(-c3ncc4c(N5CC6CCC(C5)N6)nc(OCC56CCCN5CC(F)C6)nc4c3F)c12 (stereo not given) + Cc1[nH]c2ccc(F)cc2c1-c1nc2c3cccnc3c3ncccc3c2[nH]1 ? 3

###

Each entry below carries its reported pIC50.
# Test system: 817829-284-R-J1-PDC complex spheroids, viability
# test: Anticancer human tumor 817829-284-R-J1-PDC cell line growth inhibition [GQUAD];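 further: spheroids exposed to agents for 7 days before readout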
# details: curve of first compound; second compound 10 µM
pIC50: −log10 of the molar value.

Which pIC50 value is on record for CC1COCCN1c1cc(-c2ccnn2C)c2ccnc(-c3ccn[nH]3)c2n1 (stereo not drawn) + Cc1cnc(CNC(=O)c2c(=O)c3ccc(N4CCCN(C)CC4)nc3n3c2sc2ccccc23)cn1 ? > 7.50

Look at this compound and give its reported pIC50. CC(=O)O[C@H]1C(=O)[C@@]2(C)[C@H]([C@H](OC(=O)c3ccccc3)[C@]3(O)C[C@H](OC(=O)[C@H](O)[C@@H](NC(=O)c4ccccc4)c4ccccc4)C(C)=C1C3(C)C)[C@]1(OC(C)=O)CO[C@@H]1C[C@@H]2O + Cc1[nH]c2ccc(F)cc2c1-c1nc2c3cccnc3c3ncccc3c2[nH]1 > 7.50

Entry C=CCn1c(=O)c2cnc(Nc3ccc(N4CCN(C)CC4)cc3)nc2n1-c1cccc(C(C)(C)O)n1 + Cc1cnc(CNC(=O)c2c(=O)c3ccc(N4CCCN(C)CC4)nc3n3c2sc2ccccc23)cn1 has what pIC50? > 7.50

###

# System: 817829-284-R-J1-PDC complex spheroids, viability
# test: Anticancer human tumor 817829-284-R-J1-PDC cell line growth inhibition [GQUAD]; active = viability on the fitted dose curve at most 10% of control; inactive = the rest;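 further: spheroids exposed to agents for 7 days before readout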
# details: second compound 1 µM; first compound 3.16 µM
Outcome (select one): 1.0 = active, 0.0 = inactive

Hi, do you know how O=C(c1cc(Cc2n[nH]c(=O)c3ccccc23)ccc1F)N1CCN(C(=O)C2CC2)CC1 + CN(C)c1ccc(Nc2c3ccc(NC(=O)CCN4CCCC4)cc3nc3cc(NC(=O)CCN4CCCC4)ccc23)cc1 came out in this test? 0.0

Per the assay record, what outcome was assigned to COc1ccc([C@@H](O)c2cc(-c3ncnc4cc(N5CCOCC5)ccc34)c(F)cc2Cl)nn1 + Cc1cnc(CNC(=O)c2c(=O)c3ccc(N4CCCN(C)CC4)nc3n3c2sc2ccccc23)cn1 ? 0.0

Answer briefly: the call reported for CC1COCCN1c1cc(C2(S(C)(=N)=O)CC2)nc(-c2ccnc3[nH]ccc23)n1 (stereo not drawn) + Cc1[nH]c2ccc(F)cc2c1-c1nc2c3cccnc3c3ncccc3c2[nH]1 in this assay. 1.0

Fill in: this test's call for C=CCn1c(=O)c2cnc(Nc3ccc(N4CCN(C)CC4)cc3)nc2n1-c1cccc(C(C)(C)O)n1 + Cc1cnc(CNC(=O)c2c(=O)c3ccc(N4CCCN(C)CC4)nc3n3c2sc2ccccc23)cn1 is ___ 1.0

Hello, I am checking results. What call was entered for COc1cccc2c1C(=O)c1c(O)c3c(c(O)c1C2=O)CC(O)(C(=O)CO)CC3OC1CC(N)C(O)C(C)O1 (stereo not drawn) + Cc1[nH]c2ccc(F)cc2c1-c1nc2c3cccnc3c3ncccc3c2[nH]1 ? 1.0

Next:
Hey, what did the test say about C=CCn1c(=O)c2cnc(Nc3ccc(N4CCN(C)CC4)cc3)nc2n1-c1cccc(C(C)(C)O)n1 + CN(C)c1ccc(Nc2c3ccc(NC(=O)CCN4CCCC4)cc3nc3cc(NC(=O)CCN4CCCC4)ccc23)cc1 ? 1.0

Kindly provide the recorded test outcome for the following compound: O=c1[nH]cc(F)c(=O)[nH]1 + Cc1[nH]c2ccc(F)cc2c1-c1nc2c3cccnc3c3ncccc3c2[nH]1 0.0

Test call, this compound: COc1cc(C2c3cc4c(cc3C(OC3OC5COC(C)OC5C(O)C3O)C3COC(=O)C23)OCO4)cc(OC)c1O (stereo not drawn) + CN(C)c1ccc(Nc2c3ccc(NC(=O)CCN4CCCC4)cc3nc3cc(NC(=O)CCN4CCCC4)ccc23)cc1 0.0
